measured quantity: pKi
Please report pKi as the negative decimal logarithm of the molar concentration, giving only the number.

Input: # lookup: human mGlu5a receptor (Homo sapiens, UniProt P41594) pKi, key = `Cc1cc(C(F)(F)F)cc(-n2c(C)nc(C#Cc3ccnc(Cl)c3)c2C)n1`
Output: 7.10

Input: # lookup: human mGlu5a receptor (Homo sapiens, UniProt P41594) pKi, key = `Cc1cc(-n2c(C)nc(C#Cc3ccnc(Cl)c3)c2C)ccc1F`
Output: 7.46

Input: # lookup: human mGlu5a receptor (Homo sapiens, UniProt P41594) pKi, key = `Cc1nc(C#Cc2ccnc(Cl)c2)c(C)n1-c1cccc(Cl)c1F`
Output: 7.55

Input: # lookup: human mGlu5a receptor (Homo sapiens, UniProt P41594) pKi, key = `Cc1ccc(-n2c(C)nc(C#Cc3ccnc(Cl)c3)c2C)cc1Cl`
Output: 8.00

Input: # lookup: human mGlu5a receptor (Homo sapiens, UniProt P41594) pKi, key = `Cc1c(C#Cc2ccnc(Cl)c2)nn(C)c1-c1ccc(F)cc1`
Output: 8.23

Input: # lookup: human mGlu5a receptor (Homo sapiens, UniProt P41594) pKi, key = `Cc1nc(C#Cc2ccnc(Cl)c2)c(C)n1-c1cnccn1`
Output: 6.97

Input: # lookup: human mGlu5a receptor (Homo sapiens, UniProt P41594) pKi, key = `COc1ccc(-n2c(C)nc(C#Cc3ccnc(Cl)c3)c2C)cc1`
Output: 7.52

Input: # lookup: human mGlu5a receptor (Homo sapiens, UniProt P41594) pKi, key = `Cc1cc(F)ccc1-n1c(C)nc(C#Cc2ccnc(Cl)c2)c1C`
Output: 7.30

Input: # lookup: human mGlu5a receptor (Homo sapiens, UniProt P41594) pKi, key = `Cc1nc(C#Cc2ccnc(Cl)c2)c(C)n1-c1ccc(Cl)cc1`
Output: 7.70

Input: # lookup: human mGlu5a receptor (Homo sapiens, UniProt P41594) pKi, key = `Cc1cccc(-n2c(C)nc(C#Cc3ccnc(Cl)c3)c2C)n1`
Output: 7.03

Values from patent US20090054490A1
